- assay.target: Neuronal acetylcholine receptor subunit alpha-7 (Homo sapiens)
- test.name: Antagonist activity at human alpha-7 nAChR in tsA201 cells coexpressed with Ric3 by FMP assay
- Format: functional, cell-based
- assay.setup: read-out: pIC50 (converted)
Consider the following compounds; for each one, report its IC50.
Write the answer as a number in nM, unit excluded.

The compound identified as COc1ccc(C[N+]23CC[C@@H]4[C@@H]5[C@@H]6[C@@H](OCC=C(C2)[C@@H]6C[C@@H]43)N2c3ccccc3[C@@]34CC[N+]6(Cc7ccc(OC)c(OC)c7)CC7=CCO[C@H]([C@@H]([C@H]23)[C@H]7C[C@@H]46)N5c2ccccc2)cc1OC.[Cl-].[Cl-] (some centres undefined) registered its IC50 at 1320

The compound identified as COc1ccc(C[N+]23CC[C@@H]4[C@@H]5/C(=C\N6c7ccccc7[C@@]78CC[N+]9(Cc%10ccc(OC)c(OC)c%10)CC%10=CCO[C@H]([C@@H]([C@H]67)[C@H]%10C[C@@H]89)N5c5ccccc5)[C@@H](C[C@@H]42)/C(=C\CO)C3)cc1OC.[Cl-].[Cl-] (some centres undefined) registered its IC50 at 2630

The compound identified as OC/C=C1/CN2CC[C@H]3[C@@H]2C[C@@H]1/C1=C/N2c4ccccc4[C@@]45CCN6CC7=CCO[C@H]([C@@H]([C@H]24)[C@H]7C[C@H]65)N(c2ccccc2)[C@@H]13 registered its IC50 at 1510

The compound identified as C[N+]12CC[C@@H]3[C@@H]4/C(=C\N5c6ccccc6[C@@]67CC[N+]8(C)CC9=CCO[C@H]([C@@H]([C@H]56)[C@H]9C[C@@H]78)N4c4ccccc4)[C@@H](C[C@@H]31)/C(=C\CO)C2.[I-].[I-] (some centres undefined) registered its IC50 at 2090

###

- assay.target: Neuronal acetylcholine receptor subunit alpha-7 (Homo sapiens, UniProt P36544)
- Sequence (P36544 whole entry): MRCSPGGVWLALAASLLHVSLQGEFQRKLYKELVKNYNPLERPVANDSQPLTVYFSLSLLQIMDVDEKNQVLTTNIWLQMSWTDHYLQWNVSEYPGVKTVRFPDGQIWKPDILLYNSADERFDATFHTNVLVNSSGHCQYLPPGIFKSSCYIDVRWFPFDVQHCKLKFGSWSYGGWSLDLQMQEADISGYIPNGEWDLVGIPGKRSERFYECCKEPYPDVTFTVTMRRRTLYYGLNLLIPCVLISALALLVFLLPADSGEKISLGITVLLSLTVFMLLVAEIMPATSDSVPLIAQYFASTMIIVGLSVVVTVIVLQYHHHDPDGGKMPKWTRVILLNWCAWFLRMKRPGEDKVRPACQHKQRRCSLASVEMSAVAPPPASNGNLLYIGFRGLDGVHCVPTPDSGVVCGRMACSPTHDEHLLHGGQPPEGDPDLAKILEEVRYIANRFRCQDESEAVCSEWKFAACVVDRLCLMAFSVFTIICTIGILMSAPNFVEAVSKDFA
- test.name: Displacement of [3H]methyllycaconitine from human alpha-7 in tsA201 cells coexpressed with 5HT3A receptor
- Assay type: cell-based
- assay.setup: read-out: pKi (converted)
Consider the following compounds; for each one, report its Ki.
Write the answer as a number in nM, unit excluded.

The compound identified as C[N+]12CC[C@@H]3[C@@H]4/C(=C\N5c6ccccc6[C@@]67CC[N+]8(C)CC9=CCO[C@H]([C@@H]([C@H]56)[C@H]9C[C@@H]78)N4c4ccccc4)[C@@H](C[C@@H]31)/C(=C\CO)C2.[I-].[I-] (some centres not stated) registered its Ki at 1000

The compound identified as OC/C=C1/C[N+]2(C3C=CCCC3)CC[C@@H]3[C@@H]4/C(=C\N5c6ccccc6[C@@]67CC[N+]8(C9C=CCCC9)CC9=CCO[C@H]([C@@H]([C@H]56)[C@H]9C[C@@H]78)N4c4ccccc4)[C@H]1C[C@@H]32.[Br-].[Br-] (some centres not stated) registered its Ki at 316

###

- assay.target: Neuronal acetylcholine receptor subunit alpha-7 (Homo sapiens)
- test.name: Displacement of [3H]methyllycaconitine from human alpha-7 in tsA201 cells coexpressed with 5HT3A receptor
- Assay type: cell-based
- assay.setup: read-out: pKi (converted)
attribute.measured: Ki (nM)
Write the answer as a number in nM, unit excluded.

The compound identified as C[N+]12CC[C@@H]3[C@@H]4[C@@H]5[C@@H](OCC=C(C1)[C@@H]5C[C@@H]32)N1c2ccccc2[C@@]23CC[N+]5(C)CC6=CCO[C@H]([C@@H]([C@H]12)[C@H]6C[C@@H]35)N4c1ccccc1.[I-].[I-] (stereo partly drawn) registered its Ki at 316

The compound identified as C1=C2C[N+]3(Cc4ccccc4)CC[C@@H]4[C@@H]5[C@H]([C@@H](OC1)N1c6ccccc6[C@@]67CC[N+]8(Cc9ccccc9)CC9=CCO[C@H]([C@@H]([C@H]16)[C@H]9C[C@@H]78)N5c1ccccc1)[C@H]2C[C@@H]43.[Br-].[Br-] (stereo partly drawn) registered its Ki at 200

The compound identified as Brc1ccc(C[N+]23CC[C@@H]4[C@@H]5[C@@H]6[C@@H](OCC=C(C2)[C@@H]6C[C@@H]43)N2c3ccccc3[C@@]34CC[N+]6(Cc7ccc(Br)cc7)CC7=CCO[C@H]([C@@H]([C@H]23)[C@H]7C[C@@H]46)N5c2ccccc2)cc1.[Br-].[Br-] (stereo partly drawn) registered its Ki at 251

###

- assay.target: Glycine receptor subunit alpha-1 (Homo sapiens)
- Sequence (P23415 whole entry): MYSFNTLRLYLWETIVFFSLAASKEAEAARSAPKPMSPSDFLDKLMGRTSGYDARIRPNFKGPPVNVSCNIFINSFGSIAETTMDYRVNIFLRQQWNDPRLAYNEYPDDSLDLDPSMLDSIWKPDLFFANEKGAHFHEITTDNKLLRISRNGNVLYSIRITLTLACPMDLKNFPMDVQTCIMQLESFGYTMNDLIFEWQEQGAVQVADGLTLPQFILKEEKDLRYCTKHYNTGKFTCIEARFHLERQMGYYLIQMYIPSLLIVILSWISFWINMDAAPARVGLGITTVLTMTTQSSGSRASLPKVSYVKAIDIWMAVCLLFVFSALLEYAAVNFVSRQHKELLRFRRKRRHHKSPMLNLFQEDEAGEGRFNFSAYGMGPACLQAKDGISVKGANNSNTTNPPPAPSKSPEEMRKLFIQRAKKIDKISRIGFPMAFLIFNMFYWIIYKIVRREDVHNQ
- test.name: Antagonist activity at human glycine alpha-1 receptor in HEK293 cells by FMP assay
- Type: functional, cell-based
- assay.setup: hek293
Consider the following molecules; for each one, report its pIC50.

The molecule identified as CC(=O)OCC[N+]12CC[C@@H]3[C@@H]4[C@@H]5[C@@H](OCC=C(C1)[C@@H]5C[C@@H]32)N1c2ccccc2[C@@]23CC[N+]5(CCOC(C)=O)CC6=CCO[C@H]([C@@H]([C@H]12)[C@H]6C[C@@H]35)N4c1ccccc1.[Br-].[Br-] (stereo partly drawn) registered its pIC50 at < 4

The molecule identified as COc1ccc(C[N+]23CC[C@@H]4[C@@H]5[C@@H]6[C@@H](OCC=C(C2)[C@@H]6C[C@@H]43)N2c3ccccc3[C@@]34CC[N+]6(Cc7ccc(OC)c(OC)c7)CC7=CCO[C@H]([C@@H]([C@H]23)[C@H]7C[C@@H]46)N5c2ccccc2)cc1OC.[Cl-].[Cl-] (stereo partly drawn) registered its pIC50 at < 4

The molecule identified as C[N+]12CC[C@@H]3[C@@H]4/C(=C\N5c6ccccc6[C@@]67CC[N+]8(C)CC9=CCO[C@H]([C@@H]([C@H]56)[C@H]9C[C@@H]78)N4c4ccccc4)[C@@H](C[C@@H]31)/C(=C\CO)C2.[I-].[I-] (stereo partly drawn) registered its pIC50 at < 4

###

- test.name: Antagonist activity at human alpha-7 nAChR Y195A mutant coexpressed with human Ric3 in tsA201 cells by FMP assay
- Format: functional, cell-based
- assay.setup: read-out: pIC50 (converted)
Consider the following molecules; for each one, report its IC50.
Write the answer as a number in µM, unit excluded.

The molecule identified as C[N+]12CC[C@@H]3[C@@H]4[C@@H]5[C@@H](OCC=C(C1)[C@@H]5C[C@@H]32)N1c2ccccc2[C@@]23CC[N+]5(C)CC6=CCO[C@H]([C@@H]([C@H]12)[C@H]6C[C@@H]35)N4c1ccccc1.[I-].[I-] (stereo not given in full) registered its IC50 at 7.08

The molecule identified as CCN1C[C@]2(COC(=O)c3ccccc3N3C(=O)C[C@H](C)C3=O)CC[C@H](OC)[C@@]34[C@@H]5C[C@H]6[C@H](OC)[C@@H]5[C@](O)(C[C@@H]6OC)[C@](O)([C@@H](OC)[C@H]23)[C@@H]14 registered its IC50 at 0.324

The molecule identified as C[N+]12CC[C@@H]3[C@@H]4/C(=C\N5c6ccccc6[C@@]67CC[N+]8(C)CC9=CCO[C@H]([C@@H]([C@H]56)[C@H]9C[C@@H]78)N4c4ccccc4)[C@@H](C[C@@H]31)/C(=C\CO)C2.[I-].[I-] (stereo not given in full) registered its IC50 at 7.08

The molecule identified as O=[N+]([O-])c1ccc(C[N+]23CC[C@@H]4[C@@H]5[C@@H]6[C@@H](OCC=C(C2)[C@@H]6C[C@@H]43)N2c3ccccc3[C@@]34CC[N+]6(Cc7ccc([N+](=O)[O-])cc7)CC7=CCO[C@H]([C@@H]([C@H]23)[C@H]7C[C@@H]46)N5c2ccccc2)cc1.[Br-].[Br-] (stereo not given in full) registered its IC50 at 25.1

The molecule identified as C1=CC([N+]23CC[C@@H]4[C@@H]5[C@@H]6[C@@H](OCC=C(C2)[C@@H]6C[C@@H]43)N2c3ccccc3[C@@]34CC[N+]6(C7C=CCCC7)CC7=CCO[C@H]([C@@H]([C@H]23)[C@H]7C[C@@H]46)N5c2ccccc2)CCC1.[Br-].[Br-] (stereo not given in full) registered its IC50 at 3.31
